Reference source for all entries: ChEMBL document CHEMBL3632524

# System: PC-3
# procedureSummary: Antiproliferative activity against human PC3 cells assessed as cell viability after 18 hrs by MTT assay
# Assay type: functional, cell-based
# runParameters: PC-3, 18 h
metricName: IC50 (µM)

querySmiles: CC1(C)[C@@H](OCc2c(Cl)cccc2Cl)CC[C@]2(C)[C@H]3C(=O)C=C4[C@@H]5C[C@@](C)(C(=O)O)CC[C@]5(C)CC[C@@]4(C)[C@]3(C)CC[C@@H]12
systemUnderTest: PC-3
metricName: IC50
reportedValue: 100

###

# Test system: PC-3
# procedureSummary: Antiproliferative activity against human PC3 cells assessed as cell viability after 48 hrs by MTT assay
# Format: functional, cell-based
# runParameters: PC-3, 48 h

compound: CC(C)=CCC/C(C)=C\CO[C@H]1CC[C@]2(C)[C@H]3C(=O)C=C4[C@@H]5C[C@@](C)(C(=O)O)CC[C@]5(C)CC[C@@]4(C)[C@]3(C)CC[C@H]2C1(C)C
IC50: > 20 µM
--
compound: CC1(C)[C@@H](OCc2ccc(Cl)cc2Cl)CC[C@]2(C)[C@H]3C(=O)C=C4[C@@H]5C[C@@](C)(C(=O)O)CC[C@]5(C)CC[C@@]4(C)[C@]3(C)CC[C@@H]12
IC50: 18 µM
--
compound: CC1(C)[C@@H](OCc2ccc(C(F)(F)F)cc2C(F)(F)F)CC[C@]2(C)[C@H]3C(=O)C=C4[C@@H]5C[C@@](C)(C(=O)O)CC[C@]5(C)CC[C@@]4(C)[C@]3(C)CC[C@@H]12
IC50: > 20 µM
--
compound: CC1(C)[C@@H](OCc2ccc(Br)cc2)CC[C@]2(C)[C@H]3C(=O)C=C4[C@@H]5C[C@@](C)(C(=O)O)CC[C@]5(C)CC[C@@]4(C)[C@]3(C)CC[C@@H]12
IC50: > 20 µM
--
compound: CC(=O)O[C@H]1C(=O)[C@@]2(C)[C@H]([C@H](OC(=O)c3ccccc3)[C@]3(O)C[C@H](OC(=O)[C@H](O)[C@@H](NC(=O)c4ccccc4)c4ccccc4)C(C)=C1C3(C)C)[C@]1(OC(C)=O)CO[C@@H]1C[C@@H]2O [PACLITAXEL]
IC50: 0.012 µM
--
compound: COc1ccc(CO[C@H]2CC[C@]3(C)[C@H]4C(=O)C=C5[C@@H]6C[C@@](C)(C(=O)O)CC[C@]6(C)CC[C@@]5(C)[C@]4(C)CC[C@H]3C2(C)C)cc1Br
IC50: > 20 µM
--
compound: CC1(C)[C@@H](OCc2ccc(Cl)cc2)CC[C@]2(C)[C@H]3C(=O)C=C4[C@@H]5C[C@@](C)(C(=O)O)CC[C@]5(C)CC[C@@]4(C)[C@]3(C)CC[C@@H]12
IC50: > 20 µM
--
compound: CC1(C)[C@@H](OCc2ccccc2[N+](=O)[O-])CC[C@]2(C)[C@H]3C(=O)C=C4[C@@H]5C[C@@](C)(C(=O)O)CC[C@]5(C)CC[C@@]4(C)[C@]3(C)CC[C@@H]12
IC50: > 20 µM
--
compound: CC1(C)[C@@H](OCc2ccc(F)c(Br)c2)CC[C@]2(C)[C@H]3C(=O)C=C4[C@@H]5C[C@@](C)(C(=O)O)CC[C@]5(C)CC[C@@]4(C)[C@]3(C)CC[C@@H]12
IC50: > 20 µM
--
compound: CC1(C)[C@@H](OCc2ccc(F)cc2)CC[C@]2(C)[C@H]3C(=O)C=C4[C@@H]5C[C@@](C)(C(=O)O)CC[C@]5(C)CC[C@@]4(C)[C@]3(C)CC[C@@H]12
IC50: 9 µM
--
compound: CO[C@H]1CC[C@]2(C)[C@H]3C(=O)C=C4[C@@H]5C[C@@](C)(C(=O)O)CC[C@]5(C)CC[C@@]4(C)[C@]3(C)CC[C@H]2C1(C)C
IC50: > 20 µM
--
compound: CC1(C)[C@@H](OCc2c(Cl)cccc2Cl)CC[C@]2(C)[C@H]3C(=O)C=C4[C@@H]5C[C@@](C)(C(=O)O)CC[C@]5(C)CC[C@@]4(C)[C@]3(C)CC[C@@H]12
IC50: 6 µM
--
compound: COc1ccc(CO[C@H]2CC[C@]3(C)[C@H]4C(=O)C=C5[C@@H]6C[C@@](C)(C(=O)O)CC[C@]6(C)CC[C@@]5(C)[C@]4(C)CC[C@H]3C2(C)C)cc1OC
IC50: > 20 µM
--
compound: CC1(C)[C@@H](OCc2c(F)cccc2Cl)CC[C@]2(C)[C@H]3C(=O)C=C4[C@@H]5C[C@@](C)(C(=O)O)CC[C@]5(C)CC[C@@]4(C)[C@]3(C)CC[C@@H]12
IC50: 10 µM
--
compound: CC1(C)[C@@H](OCc2ccccc2I)CC[C@]2(C)[C@H]3C(=O)C=C4[C@@H]5C[C@@](C)(C(=O)O)CC[C@]5(C)CC[C@@]4(C)[C@]3(C)CC[C@@H]12
IC50: > 20 µM
--
compound: CC1(C)[C@@H](OCc2cccc([N+](=O)[O-])c2)CC[C@]2(C)[C@H]3C(=O)C=C4[C@@H]5C[C@@](C)(C(=O)O)CC[C@]5(C)CC[C@@]4(C)[C@]3(C)CC[C@@H]12
IC50: > 20 µM
--
compound: CC1(C)[C@@H](OCc2ccc3c(c2)OCO3)CC[C@]2(C)[C@H]3C(=O)C=C4[C@@H]5C[C@@](C)(C(=O)O)CC[C@]5(C)CC[C@@]4(C)[C@]3(C)CC[C@@H]12
IC50: > 20 µM
--
compound: CC(C)=CCO[C@H]1CC[C@]2(C)[C@H]3C(=O)C=C4[C@@H]5C[C@@](C)(C(=O)O)CC[C@]5(C)CC[C@@]4(C)[C@]3(C)CC[C@H]2C1(C)C
IC50: > 20 µM
--
compound: CC1(C)[C@@H](O)CC[C@]2(C)[C@H]3C(=O)C=C4[C@@H]5C[C@@](C)(C(=O)O)CC[C@]5(C)CC[C@@]4(C)[C@]3(C)CC[C@@H]12 [ENOXOLONE]
IC50: > 20 µM
--
compound: CC1(C)[C@@H](OCc2cccc(Cl)c2)CC[C@]2(C)[C@H]3C(=O)C=C4[C@@H]5C[C@@](C)(C(=O)O)CC[C@]5(C)CC[C@@]4(C)[C@]3(C)CC[C@@H]12
IC50: > 20 µM
